Target: Prostaglandin G/H synthase 2 (Homo sapiens)
Sequence (P35354 whole entry): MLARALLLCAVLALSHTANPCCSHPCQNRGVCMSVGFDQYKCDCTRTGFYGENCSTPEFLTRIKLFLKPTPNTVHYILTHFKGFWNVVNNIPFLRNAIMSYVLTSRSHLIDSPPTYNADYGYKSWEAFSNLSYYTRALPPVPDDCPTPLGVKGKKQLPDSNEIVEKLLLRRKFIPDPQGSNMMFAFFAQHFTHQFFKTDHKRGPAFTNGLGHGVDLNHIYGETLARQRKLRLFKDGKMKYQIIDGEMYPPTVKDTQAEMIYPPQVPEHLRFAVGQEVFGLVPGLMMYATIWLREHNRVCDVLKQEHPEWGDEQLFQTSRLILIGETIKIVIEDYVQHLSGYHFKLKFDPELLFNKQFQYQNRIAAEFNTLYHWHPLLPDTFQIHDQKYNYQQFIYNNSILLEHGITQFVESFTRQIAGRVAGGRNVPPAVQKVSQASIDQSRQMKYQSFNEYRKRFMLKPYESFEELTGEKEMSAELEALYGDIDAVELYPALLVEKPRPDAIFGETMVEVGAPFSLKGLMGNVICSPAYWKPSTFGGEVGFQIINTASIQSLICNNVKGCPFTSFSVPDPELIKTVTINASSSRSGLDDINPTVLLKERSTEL
Experiment: Inhibition of human COX-2 using arachidonic acid as substrate assessed as PGE2 formation after 2 mins by LC-MS/MS analysis
pIC50: −log10 of the molar value.
quantity name: pIC50

Give the reported pIC50 for C=C(C)[C@@H]1CC[C@]2(C)[C@H](CC=C3[C@@H]4[C@@H](C)[C@H](C)CC[C@]4(C)CC[C@]32C)[C@@]1(C)CCC(=O)O (system: Prostaglandin G/H synthase 2 (Homo sapiens)).
< 5.00
